- Assay overview: oral toxicity (mortality) in the mouse
- Test settings: in vivo, Swiss mice, 1500 mg/kg
Provide the reported mortality at 336 h of each item.
# unit: % | format: bare number

Given the entry C(=Nc1ccc2c(c1)OCO2)c1cccs1 [Example 1, N-thienylidene-5-aminobenzodioxole-1,3] , report its measured mortality at 336 h.
20

Given the entry Cc1ccsc1C=Nc1ccc2c(c1)OCO2 [Example 4] , report its measured mortality at 336 h.
60

Given the entry Cc1ccc(C=Nc2ccc3c(c2)OCO3)s1 [Example 2] , report its measured mortality at 336 h.
60

----------
- Assay overview: oral toxicity (mortality) in the Wistar rat
- Assay type: in vivo
- Test settings: in vivo, 3000 mg/kg
Value type: mortality at 336 h (%)
# unit: % | format: bare number

Given the entry C(=Nc1ccc2c(c1)OCO2)c1cccnc1 [Example 3] , report its measured mortality at 336 h.
20

----------
- Assay overview: oral toxicity (mortality) in the mouse
- Test settings: in vivo, Swiss mice, 1250 mg/kg
Value type: mortality at 336 h (%)
# unit: % | format: bare number

Given the entry Cc1ccc(C=Nc2ccc3c(c2)OCO3)s1 [Example 2] , report its measured mortality at 336 h.
0

----------
- Assay overview: oral toxicity (mortality) in the mouse
- Test settings: in vivo, Swiss mice, 1000 mg/kg
Provide the reported mortality at 336 h of each item.
# unit: % | format: bare number

Given the entry C(=Nc1ccc2c(c1)OCO2)c1cccs1 [Example 1, N-thienylidene-5-aminobenzodioxole-1,3] , report its measured mortality at 336 h.
0

Given the entry Cc1ccc(C=Nc2ccc3c(c2)OCO3)s1 [Example 2] , report its measured mortality at 336 h.
20

Given the entry C(=Nc1ccc2c(c1)OCO2)c1cccnc1 [Example 3] , report its measured mortality at 336 h.
10

Given the entry Cc1ccsc1C=Nc1ccc2c(c1)OCO2 [Example 4] , report its measured mortality at 336 h.
10

----------
- Assay overview: oral toxicity (mortality) in the mouse
- Test settings: in vivo, Swiss mice, 500 mg/kg
Value type: mortality at 336 h (%)
# unit: % | format: bare number

Given the entry `C(=Nc1ccc2c(c1)OCO2)c1cccnc1` , report its measured mortality at 336 h.
0

----------
- Assay overview: oral toxicity (mortality) in the mouse
- Test settings: in vivo, Swiss mice, 750 mg/kg
Provide the reported mortality at 336 h of each item.

Given the entry `Cc1ccc(C=Nc2ccc3c(c2)OCO3)s1` , report its measured mortality at 336 h.
10%

Given the entry `Cc1ccsc1C=Nc1ccc2c(c1)OCO2` , report its measured mortality at 336 h.
10%

----------
- Assay overview: oral toxicity (mortality) in the mouse
- Test settings: in vivo, Swiss mice, 2000 mg/kg
Provide the reported mortality at 336 h of each item.
# unit: % | format: bare number

Given the entry `C(=Nc1ccc2c(c1)OCO2)c1cccs1` , report its measured mortality at 336 h.
60

Given the entry `C(=Nc1ccc2c(c1)OCO2)c1cccnc1` , report its measured mortality at 336 h.
100

Given the entry `Cc1ccsc1C=Nc1ccc2c(c1)OCO2` , report its measured mortality at 336 h.
20

Reference source for all entries: patent US4333938A
